# Assay method text: Cytotoxicity against rat 3Y1 cells after 72 hrs by MTT assay
# Format: cell-based
Measurement type: log10 GI50 at 72 h (log10 of the value in nM)
In plain terms, each number is the log10 of measured GI50 at 72 h in nM.

Worked cases, log10 GI50 at 72 h given:
Compound: CC(=O)O[C@H]1C[C@H]2[C@@]3(C)CC[C@H](OC(C)=O)C(C)(C)[C@@H]3CC[C@]2(C)/C1=C(C)/C=C/C=C(\C)[C@H](CC=C(C)C)OC(C)=O
log10 GI50 at 72 h: 3.11
//
Compound: CC(C)=CCC/C(C)=C/C=C/C(C)=C1\C(=O)C[C@H]2[C@@]3(C)CC[C@H](O)C(C)(C)[C@@H]3CC[C@]12C [STELLIFERIN D]
log10 GI50 at 72 h: 1.26
//
Compound: CC(C)=CCC/C(C)=C/C=C/C(C)=C1\C(=O)C[C@H]2[C@@]3(C)CC[C@H](O)[C@](C)(CO)[C@@H]3CC[C@]12C
log10 GI50 at 72 h: 1.78
//
Compound: CC(=O)O[C@@H]1CC[C@@]2(C)[C@@H](CC[C@]3(C)/C(=C(C)/C=C/C=C(\C)[C@@H](O)CC=C(C)C)C(=O)C[C@@H]23)[C@@]1(C)CO
log10 GI50 at 72 h: 1.66
//
Compound: COc1cccc2c1C(=O)c1c(O)c3c(c(O)c1C2=O)C[C@@](O)(C(=O)CO)C[C@@H]3O[C@H]1C[C@H](N)[C@H](O)[C@H](C)O1 [DOXORUBICIN]
log10 GI50 at 72 h: 0.58

Input line: Return the recorded log10 GI50 at 72 h value; entry: CC(=O)O[C@@H](CC=C(C)C)/C(C)=C/C=C/C(C)=C1\C(=O)C[C@H]2[C@@]3(C)CC[C@@H](OC(C)=O)[C@](C)(CO)[C@@H]3CC[C@]12C
Output line: 1.72

Input line: Please give measured log10 GI50 at 72 h of the following entry: CC(=O)O[C@H]1CC[C@@]2(C)[C@@H](CC[C@]3(C)/C(=C(C)/C=C/C=C(\C)[C@@H](O)CC=C(C)C)C(=O)C[C@@H]23)C1(C)C [STELLIFERIN A]
Output line: 1.53
